Data provenance: the supplement of paper PMC13380429

System: Vero E6 infected with SARS-CoV-2
Assay: morphology score (similarity to uninfected cells); higher = more like uninfected cells
Conditions: 24 h
Documented morphology score across a set of molecules
OBSERVABLE: morphology score

>>> experimental_result("CC[C@H](CO)Nc1nc(Nc2cccc(-c3ccccn3)c2)c2ncn(C(C)C)c2n1 (10 µM)")
-0.214
>>> experimental_result("N#Cc1ccc2[nH]cc(CCCCN3CCN(c4ccc5oc(C(N)=O)cc5c4)CC3)c2c1 [vilazodone] (0.833333 µM)")
0.0471
>>> experimental_result("CC12CCC(C(Br)C1=O)C2(C)C (stereo not drawn) [3-bromocamphor] (10 µM)")
-0.0927

###

Documented inhibition of SARS-CoV-2 cytopathic effect across a set of compounds
Test system: Vero E6 infected with SARS-CoV-2
Assay: inhibition of SARS-CoV-2 cytopathic effect; higher = more antiviral protection, active = above 15
Conditions: 833.33 nM; 48 h
OBSERVABLE: inhibition of SARS-CoV-2 cytopathic effect (%)

>>> experimental_result("O=C(NN1C(=O)[C@@H]2[C@@H]3C=C[C@@H]([C@H]4C[C@@H]34)[C@@H]2C1=O)c1ccc(C(F)(F)F)cc1")
0.04
>>> experimental_result("O=C(O)COc1nn(Cc2ccccc2)c2ccccc12")
-1.97
>>> experimental_result("Cc1onc(-c2ccccc2)c1C(=O)N[C@@H]1C(=O)N2[C@@H]1SC(C)(C)[C@@H]2C(=O)O")
3.32
>>> experimental_result("Nc1nc(OCc2ccccc2)c2nc[nH]c2n1")
-3.87
>>> experimental_result("C#CC[C@H](c1nc2cc(Cl)ccc2c(=O)n1Nc1ccccc1)N(CCCN)C(=O)c1cccc(Cl)c1F")
1.38

###

Documented inhibition of SARS-CoV-2 cytopathic effect across a set of compounds
System: Vero E6 infected with SARS-CoV-2
Assay: inhibition of SARS-CoV-2 cytopathic effect; higher = more antiviral protection, active = above 15
Conditions: 8.33 nM; 48 h
OBSERVABLE: inhibition of SARS-CoV-2 cytopathic effect (%)

>>> experimental_result("OC[C@H]1O[C@@H](O[C@@H]2[C@@H](CO)OC(O)(CO)[C@H]2O)[C@H](O)[C@@H](O)[C@H]1O (mixture of isomers) [lactulose]")
0.23
>>> experimental_result("OCc1ccccc1O [salicyl-alcohol]")
-1.41
>>> experimental_result("Cc1ccccc1NC(=N)Nc1ccccc1C [ditolylguanidine]")
1.77

###

Documented SARS-CoV-2 infection rate across a set of molecules
Test system: Vero E6 infected with SARS-CoV-2
Experiment: SARS-CoV-2 infection rate relative to infected DMSO; higher = more infection, active = 60 or less
Details: 24 h
OBSERVABLE: SARS-CoV-2 infection rate (%)

>>> experimental_result("Clc1ccccc1C(c1ccccc1)(c1ccccc1)n1ccnc1 [clotrimazole] (10 µM)")
78.5
>>> experimental_result("Cc1cc(C)nc(SCC(=O)Nc2ncc(Cc3cccc4ccccc34)s2)n1 (10 µM)")
96.5
>>> experimental_result("CCOc1ccc(Nc2nc(-c3c(C)nc4ccccn34)cs2)cc1 (0.833333 µM)")
102
>>> experimental_result("CC[C@@H](CO)NCCN[C@@H](CC)CO [ethambutol] (10 µM)")
109
>>> experimental_result("O=[N+]([O-])/N=C1\\NCCN1Cc1ccc(Cl)nc1 [imidacloprid] (10 µM)")
98.5

###

Tested on: Vero E6 infected with SARS-CoV-2
Assay: inhibition of SARS-CoV-2 cytopathic effect; higher = more antiviral protection, active = above 15
Conditions: 833.33 nM; 48 h
Documented inhibition of SARS-CoV-2 cytopathic effect across a set of compounds
OBSERVABLE: inhibition of SARS-CoV-2 cytopathic effect (%)

>>> experimental_result("CN1CCC(=C2c3ccccc3C=Cc3ccccc32)CC1")
-0.75
>>> experimental_result("O=C(OCCOCCO)c1ccccc1Nc1cccc(C(F)(F)F)c1 [etofenamate]")
-0.46
>>> experimental_result("O=C(NCCCN1CCC2(CC1)OCc1ccccc12)[C@H]1CCCN1Cc1ccccc1")
-1.81
>>> experimental_result("FC(F)(F)C(F)(F)C(F)(F)C(F)(F)C(F)(F)C(F)(F)C(F)(F)C(F)(F)Br")
-1.6
>>> experimental_result("C=CC(N)CCC(=O)O (configuration not stated)")
-11
>>> experimental_result("CC(C)c1cnn2c(NCc3ccccc3)cc(NCCCCCCN)nc12")
1.83
>>> experimental_result("N=C(N)NCCC[C@H](NC(=O)c1sccc1NS(=O)(=O)c1cccc2nsnc12)C(=O)O")
0.4
>>> experimental_result("O=c1[nH]c(=O)n([C@H]2C[C@H](O)[C@@H](CO)O2)cc1Br")
3.59
>>> experimental_result("O=C1OC(OC(=O)c2cccnc2Nc2cccc(C(F)(F)F)c2)c2ccccc21 (configuration not stated) [talniflumate]")
0.94
>>> experimental_result("N#CN1CCCC1")
1.38
>>> experimental_result("Cc1ccc2c(Br)cc(Br)c(OC(=O)c3ccccc3)c2n1")
5.01
>>> experimental_result("COc1ccccc1OC(=O)c1ccccc1OC(C)=O")
4.31
>>> experimental_result("C[C@H](CCC(=O)O)[C@H]1CC[C@H]2[C@@H]3CC[C@@H]4C[C@H](O)CC[C@]4(C)[C@H]3C[C@H](O)[C@]12C")
-1.15
>>> experimental_result("CN(CCOP(=O)(O)O)C(=N)N [creatinol-phosphate]")
-2.46
>>> experimental_result("C[N+]1(C)CCC(=C(c2ccccc2)c2ccccc2)CC1")
2.17
>>> experimental_result("C[C@H]1C[C@H]2[C@@H]3CCC4=CC(=O)C=C[C@]4(C)[C@@]3(Cl)[C@@H](O)C[C@]2(C)[C@@]1(O)C(=O)CO")
-4.99
>>> experimental_result("CN1C(=O)N(c2cc(Cl)cc(Cl)c2)C(=O)[C@]12CN(c1ccc(C(=O)O)cn1)C[C@H]2c1ccc(C#N)cc1")
1.84
>>> experimental_result("Cc1ccc(NC(=O)Nc2cc(C(F)(F)F)ccc2F)cc1Nc1ccc2c(c1)NC(=O)/C2=C\\c1ccc[nH]1")
7.91
>>> experimental_result("COc1cc(C(=O)N2CCC(N3CCN(C)CC3)CC2)ccc1Nc1ncc2c(n1)N(C)c1ccccc1C(=O)N2C")
1.89
>>> experimental_result("Cc1ccc(S(=O)(=O)N2CCC[C@H]2c2ccc(F)cc2)cc1")
1.4
>>> experimental_result("CO/N=C(\\C(=O)N[C@@H]1C(=O)N2C(C(=O)O)=CCS[C@H]12)c1csc(N)n1")
0.85
>>> experimental_result("Cc1cc(OCc2nnc(SC3CCCC3)n2-c2cccnc2)ccc1-c1ccc(S(C)(=O)=O)cc1")
5.04
>>> experimental_result("C=CC(=O)N1CCC(Oc2cc3c(Nc4ccc(Cl)c(Cl)c4F)ncnc3cc2OC)CC1")
-17.3
>>> experimental_result("COc1ccc([C@]2(C#N)CC[C@@H](C(=O)O)CC2)cc1OC1CCCC1")
-1.23
>>> experimental_result("CC(C)Oc1ccc(Cc2ccc(NC3=NCCN3)cc2)cc1")
0.98
>>> experimental_result("CNC[C@H](O)c1cccc(O)c1")
0.14
>>> experimental_result("Cc1ncc(NC(=O)c2ccc(CN3CCN(C)CC3)c(C(F)(F)F)c2)cc1Nc1nccc(-c2cccnc2)n1")
3.69

###

Test system: Vero E6 infected with SARS-CoV-2
Assay: SARS-CoV-2 infection rate relative to infected DMSO; higher = more infection, active = 60 or less
Details: 24 h
OBSERVABLE: SARS-CoV-2 infection rate (%)

>>> experimental_result("O=S(=O)(N[C@H]1CC[C@@](c2cc(F)ccc2F)(S(=O)(=O)c2ccc(Cl)cc2)CC1)C(F)(F)F (10 µM)")
104
>>> experimental_result("O=[N+]([O-])c1cc([N+](=O)[O-])c(/C=C/c2ccc(Cl)c(Cl)c2)cc1/C=C/c1ccc(Cl)c(Cl)c1 (10 µM)")
97.5
>>> experimental_result("O=C(/C=C/c1ccc(O)c(O)c1)O[C@H](Cc1ccc(O)c(O)c1)C(=O)O [rosmarinic-acid] (10 µM)")
94.5
>>> experimental_result("C[C@@H](Oc1cc(-n2cnc3ccc(CN4CCN(C)CC4)cc32)sc1C(N)=O)c1ccccc1C(F)(F)F (0.833333 µM)")
94
>>> experimental_result("CC(=O)[C@H]1CC[C@H]2[C@@H]3CC=C4C[C@@H](O)CC[C@]4(C)[C@H]3CC[C@]12C [pregnenolone] (10 µM)")
112
>>> experimental_result("CNCc1ccc(-c2cc(-c3nc(-c4ccc(S(=O)(=O)C(C)C)cc4)cnc3N)on2)cc1 (0.833333 µM)")
52
>>> experimental_result("CC(C)CCC[C@@H](C)[C@H]1CC[C@H]2[C@@H]3CCC4=CC(=NO)CC[C@]4(C)[C@H]3CC[C@]12C [olesoxime] (10 µM)")
106
>>> experimental_result("COC(=O)C1=C(C)NC(C)=C([N+](=O)[O-])[C@@H]1c1ccccc1C(F)(F)F (racemic) (10 µM)")
91.8
>>> experimental_result("CC(=O)CC/C=C(\\C)CC/C=C(\\C)CC/C=C(\\C)CCC=C(C)C [teprenone] (10 µM)")
101
>>> experimental_result("COC(=O)C[C@](O)(CCC(C)(C)O)C(=O)O[C@@H]1C(OC)=C[C@]23CCCN2CCc2cc4c(cc2[C@H]13)OCO4 [harringtonine] (10 µM)")
49
>>> experimental_result("CNC(=N)NC(=O)Nc1c(C)cccc1C [lidamidine] (10 µM)")
118
>>> experimental_result("Nc1ccc2ncnc(NCCc3ccc(Oc4ccccc4)cc3)c2c1 (10 µM)")
102
>>> experimental_result("Nc1cccc2c(=O)[nH][nH]c(=O)c12 [monosodium-alpha-luminol] (10 µM)")
104
>>> experimental_result("C[C@H](NC(=O)Cc1cc(F)cc(F)c1)C(=O)N[C@@H]1C(=O)N(C)c2ccccc2-c2ccccc21 (10 µM)")
119
>>> experimental_result("CCCC(=O)O [sodium-butyrate] (10 µM)")
110
>>> experimental_result("O=C(O)CCc1ccc(NCc2cccc(Oc3ccccc3)c2)cc1 (10 µM)")
116
>>> experimental_result("CC(=O)Nc1ccc(NC(=S)NC(=O)c2ccc(C(C)(C)C)cc2)cc1 [tenovin-1] (10 µM)")
109
>>> experimental_result("COC[C@H](C)Oc1cc(O[C@@H](C)Cc2ccccc2)cc(C(=O)Nc2ccc(C(=O)O)cn2)c1 (10 µM)")
100
>>> experimental_result("CCCC[C@]1(CC)CS(=O)(=O)c2cc(CNC(CC(=O)O)CC(=O)O)c(OC)cc2[C@@H](c2ccccc2)N1 (10 µM)")
90.5
>>> experimental_result("CCN(CC)CCOCCOC(=O)C1(c2ccccc2)CCCC1 [carbetapentane] (10 µM)")
83
>>> experimental_result("CN(C)CCCCSC(=N)N (10 µM)")
100
>>> experimental_result("O=C(O[C@@H]1Cc2c(O)cc(O)cc2O[C@@H]1c1ccc(O)c(O)c1)c1cc(O)c(O)c(O)c1 [epicatechin-gallate-(-)] (10 µM)")
100
>>> experimental_result("C1CCC(/N=C(\\NC23CC4CC(CC(C4)C2)C3)N2CCOCC2)CC1 (10 µM)")
110
>>> experimental_result("Cc1cc(C)c(CNC(=O)c2cc(-c3ccc(CN4CCOCC4)cc3)cc3c2cnn3C2CCCC2)c(=O)[nH]1 (10 µM)")
110
>>> experimental_result("Nc1nc(CC(=O)Nc2ccc(CCNC[C@H](O)c3ccccc3)cc2)cs1 [mirabegron] (10 µM)")
102
>>> experimental_result("c1cc(-c2cnn3cc(-c4ccc(OCCN5CCCCC5)cc4)cnc23)ccn1 [dorsomorphin] (0.833333 µM)")
96.5
>>> experimental_result("CN1C(=O)N[C@H](Cc2c[nH]c3c(Cl)cccc23)C1=O [necrostatin-2] (10 µM)")
95
